tested on: LOX IMVI melanoma; experiment: NCI-60 one-dose screen, 48 h (100 = growth as untreated, 0 = no growth, -100 = all killed); settings: 10 µM unless noted
The panel holds about 83,000 compounds, 20% with a hit somewhere; the sample as a whole holds those more often. The source made the active and inactive calls. How the source made its calls: active means growth percent below 10; inactive means the rest.
The reader will find reported growth values listed item by item below.

molecule: COc1cc(/C=C/C(=O)c2ccc(Nc3nc(Nc4ccccc4)nc(Nc4ccc(Cl)cc4)n3)cc2)cc(OC)c1OC
test-target: LOX IMVI melanoma
growth: 66.5% (inactive)
//
molecule: C=C(C=O)C1CCC2(C(=O)O)CCC3(C)C(CCC4C5(C)CCC(O)C(C)(C)C5CCC43C)C12 (stereo not given)
test-target: LOX IMVI melanoma
growth: -74.1% (active)
//
molecule: COc1ccc(/C(C)=C(\c2ccc(Cl)cc2)c2ccc(OCCN3CCCC3)cc2)cc1F
test-target: LOX IMVI melanoma
growth: -88.3% (active)
//
molecule: Cn1cc(Nc2nccc(-c3ccc(N4CCCC4)c(C#N)c3)n2)cn1
test-target: LOX IMVI melanoma
growth: 32.6% (inactive)
//
molecule: COc1ccc(-n2sc(=O)n(Cc3ccc(COC(=O)C(C)c4ccc(CC(C)C)cc4)cc3)c2=O)cc1 (stereo not given)
test-target: LOX IMVI melanoma
growth: -75.9% (active)

###

tested on: SNB-75 CNS; assay: NCI-60 one-dose screen, 48 h; details: 10 µM unless noted
The panel holds about 83,000 compounds, 20% with a hit somewhere; the sample as a whole holds those more often. Calls of active or inactive are those of the source. Rule for the calls: active = growth percent below 10; inactive = the rest.
Classes used: active, inactive

compound: COc1ccc(OC)c(C(=O)Nc2cccc(-c3cc(=O)c4ccccc4o3)c2)c1
answer-label: inactive

compound: O=C(/C=C/C12c3ccccc3C(c3ccccc31)C1C(=O)N(c3ccc(Cl)cc3)C(=O)C12)c1ccccn1 (centres undefined)
answer-label: active

compound: CN(C)CCC(O)(Cc1ccccc1)c1ccccc1 (centres undefined)
answer-label: inactive

compound: C=C1C(=O)O[C@H]2[C@H]1CC/C(COC(=O)/C=C/C(=O)NCc1ccc(Cn3c(=O)sn(-c4ccccc4)c3=O)cc1)=C\CC[C@@]1(C)O[C@@H]21
answer-label: inactive

###

Tested on: UACC-62 melanoma
Assay: NCI-60 one-dose screen, 48 h
Details: 10 µM unless noted
Procedure: Growth inhibition of the UACC-62 human tumor cell line is measured as a screen for anti-cancer activity. Cells are grown in 96 well plates and exposed to the test compound for 48 hours. Compounds are tested at a single concentration, which is 10^-5 M for most compounds. The reported endpoint is percent growth (GI% or GIPRCNT), where numbers from 0 - 100% represent growth inhibition, and numbers from -100% - 0 represent cell death. For example, a value of 40 represents 60% growth inhibition. […]
About 83,000 compounds went through this panel and 20% of them were active in at least one assay; those are over-represented in the sample as a whole. The source made the active and inactive calls. How the source made its calls: active means growth percent below 10; inactive means the rest.
Outcomes: yes (1) (active), no (0) (inactive)

smiles-repr: C[C@H]1[C@H]2C3=CC[C@@H]4[C@@]5(C)C/C(=C/c6ccncc6)C(=O)C(C)(C)[C@@H]5CC[C@@]4(C)[C@]3(C)CC[C@@]2(C(=O)N2CCN(C)CC2)CC[C@@H]1C
answer-label: no (0)

smiles-repr: CCCCNC(=O)c1cc(NCc2cc(O)ccc2O)ccc1O
answer-label: no (0)

smiles-repr: O=C(Nc1ccc(N2CCCCC2)c(Cl)c1)c1ccc(Br)o1
answer-label: yes (1)

smiles-repr: COc1cc(/C=C/c2nc(Nc3ccc(S(=O)(=O)Nc4cc(C)on4)cc3)c3ccccc3n2)ccc1O
answer-label: no (0)

###

system: SNB-19 CNS; assay: NCI-60 one-dose screen, 48 h (100 = growth as untreated, 0 = no growth, -100 = all killed); conditions: 10 µM unless noted
This is part of a sample that, as a whole, favours compounds with a hit. Of some 83,000 tested, about 20% had one in any assay.
Entries annotated with measured growth

compound: CN1CCN(C(=O)[C@]23CCC(C)(C)C[C@@H]2C2=CC[C@@H]4[C@@]5(C)Cc6c([nH]c7ccccc67)C(C)(C)[C@@H]5CC[C@@]4(C)[C@]2(C)CC3)CC1
growth, %: 91.8
--
compound: Cc1ccccc1NC(=O)CN(C)C
growth, %: 98.8
--
compound: CC(/C=N/NC(=O)c1cc(-c2ccco2)[nH]n1)=C\c1ccccc1
growth, %: 100
--
compound: CN(C)c1ccc(/C=N/NC(=O)COc2cc(=O)n(C)c3ccccc23)cc1
growth, %: 88.4
--
compound: C=C(C)[C@@H]1CC[C@@]2(C(=O)O)CC[C@]3(C)C(CCC4[C@@]5(C)CCC(OS(=O)(=O)c6ccccc6)C(C)(C)C5CC[C@]43C)C12 (some centres undefined)
growth, %: 83.6
--
compound: O=C(NCOC(O)C(Cl)(Cl)Cl)NCOC(O)C(Cl)(Cl)Cl (centres undefined)
growth, %: 98.4
--
compound: O=C(C[C@@]1(O)C(=O)Nc2c(Cl)ccc(Cl)c21)c1ccc(C2CC2)cc1
growth, %: 36.8
--
compound: Cc1cccc(-c2cc(O)c(C(=O)N3CCOCC3)s2)c1
growth, %: 31.5
--
compound: O=C1Nc2ccc(Cl)cc2/C1=N/N=C/c1c[nH]c2ccccc12
growth, %: 86.3

###

test system: SK-MEL-2 melanoma; test: NCI-60 one-dose screen, 48 h; details: 10 µM unless noted
About 83,000 compounds went through this panel and 20% of them were active in at least one assay; those are over-represented in the sample as a whole. The source made the active and inactive calls. The calls were made as follows: active = growth percent below 10; inactive = the rest.
Outcome codes: yes (1) for active, no (0) for inactive

molecule: COc1ccc(-c2c(N)n[nH]c2-c2ccccc2O)cc1OC
test-target: SK-MEL-2 melanoma
answer-label: no (0)

molecule: CC(C)c1ccc(C(=O)OC(=O)c2ccc(C(C)C)cc2)cc1
test-target: SK-MEL-2 melanoma
answer-label: no (0)

molecule: COc1cc2nc(Nc3ccc(F)cc3)nc(N)c2cc1OC
test-target: SK-MEL-2 melanoma
answer-label: no (0)

molecule: Cc1nc(Nc2cccc(NC(=O)Nc3ccc(Cl)cc3)c2)c2ccccc2n1
test-target: SK-MEL-2 melanoma
answer-label: no (0)

molecule: O=C1Nc2ccccc2/C1=N/N=C/c1ccc(OC2OC(CO)C(O)C(O)C2O)cc1 (stereo not given)
test-target: SK-MEL-2 melanoma
answer-label: no (0)

molecule: N#Cc1c(N)nc2c(nnn2-c2cccc(C(F)(F)F)c2)c1N
test-target: SK-MEL-2 melanoma
answer-label: no (0)

molecule: CCN(CC)CC(O)CNc1c2ccc(Cl)cc2nc2ccc(OC)cc12 (stereo not given)
test-target: SK-MEL-2 melanoma
answer-label: yes (1)

molecule: CCn1c(Sc2nnc(NC(=O)CSC(=S)N3CCCCC3)s2)nc2c1c(=O)n(C)c(=O)n2C
test-target: SK-MEL-2 melanoma
answer-label: no (0)

molecule: Cc1cc(N2CCCCC2)nc(N(CCNc2ccnc3cc(Cl)ccc23)Cc2ccccn2)n1
test-target: SK-MEL-2 melanoma
answer-label: no (0)

molecule: CCN(CC)N=Nc1nn(C(=O)Nc2ccc(Cc3ccccc3)cc2)c2ccc(Cl)cc12
test-target: SK-MEL-2 melanoma
answer-label: no (0)

###

tested on: NCI-H460 lung; test: NCI-60 one-dose screen, 48 h (100 = growth as untreated, 0 = no growth, -100 = all killed); conditions: 10 µM unless noted
Compounds without any hit were thinned out: in the full panel of roughly 83,000, 20% have a hit.
In this section we review reported growth values for a set of compounds.

compound: CCOC(=O)c1c(C)nc2c(c1N)/C(=C/c1cc(OC)c(OC)c(OC)c1)C(=O)N2c1ccc(OC)cc1
growth, %: 48.5
//
compound: COc1ccc(OC)c(/C=C2\COc3ccc(O)c(O)c3C2=O)c1
growth, %: 4.53
//
compound: COc1cc(/C=C2\C=C(c3ccccc3)N(CCc3ccccc3)C2=O)cc(OC)c1OC
growth, %: 76.1
//
compound: CCOC(=O)C(O)C(O)(c1ccccc1)c1ccccc1 (stereo not given)
growth, %: 110
//
compound: O=C1N(c2ccccc2)C(=S)N[C@]12[C@H](c1ccccc1)C1CCCN1[C@]21C(=O)NC2C=CC(Cl)=C[C@H]21 (stereo not given in full)
growth, %: 102
//
compound: N#C/C(=C\c1ccc(Br)cc1)n1nnc2cc(Cl)c(Cl)cc21
growth, %: 56.7
//
compound: COc1ccc(C2=NC(=O)NC2c2ccc(OC)cc2)cc1 (stereo not given)
growth, %: 72.9
//
compound: COc1ccc(/C(C)=C(\c2ccc(Cl)cc2)c2ccc(OCCN3CCCC3)cc2)cc1F
growth, %: -55.6
//
compound: c1ccc2[nH]c(SSc3nc4ncncc4[nH]3)nc2c1
growth, %: 42.7
//
compound: COc1cc(/C=C/C(=O)c2ccc(Nc3nc(Nc4ccccc4)nc(Nc4ccc(Cl)cc4)n3)cc2)cc(OC)c1OC
growth, %: 50.5
